test system: Sporothrix schenckii ATCC 32286; assay: growth inhibition relative to untreated control; higher = more growth inhibition (more antifungal activity), active = 80 or more; extreme values may be limits of the assay; conditions: 1 µM; 48 h
measured-attribute: growth inhibition (%)
Give the quantity in %, number only.

*Q* Give recorded growth inhibition. Cc1ccccc1CN1CCC(O)(c2ccc(Cl)c(C(F)(F)F)c2)CC1
*A* 0

*Q* Determine from records and report growth inhibition for O=C(NCCc1ccn(-c2ccccc2)n1)C1CCCCC1
*A* 6.25

*Q* Fill in reported growth inhibition for this entry: CCNC(=O)C(C)Nc1nc(-c2cccnc2)nc2sc(C)c(C)c12 (stereo not drawn)
*A* 16

*Q* Specify reported growth inhibition for the molecule shown: Cc1ccc(NC(=O)c2cc(S(=O)(=O)NC(C)(C)C)ccc2C)nc1
*A* 0

*Q* Give the reported value of growth inhibition for this record: CC(C)(C)c1cnc(NC(=O)c2ccccc2O)s1
*A* 0

*Q* Identify measured growth inhibition associated with CC(=O)NCC1CN(c2ccc(-c3ccc(CO)cc3)c(F)c2)C(=O)O1 (stereo not drawn)
*A* 13.2

*Q* Provide measured growth inhibition value, entry: O=C(NCCN1CCCC1)c1cc(NCCCCN2CCC(F)(F)CC2)nc2ccc(Cl)cc12
*A* 8.5

*Q* Answer with reported growth inhibition of COc1ccc(-c2cncc3ccc(C(=O)NCCCn4ccnc4)nc23)cc1
*A* 16.5

*Q* Find the measured growth inhibition of Cc1ccc2c(c1C)NC(=O)C21NN=C(c2ccccc2)S1 (stereo not drawn) and report it.
*A* 4.5

*Q* Kindly indicate its recorded growth inhibition. Item: COc1ccc(-c2nnc3ccc(-c4cccc(C(C)C)c4)cn23)cc1OC
*A* 16.8

*Q* Identify growth inhibition associated with the molecule Cc1ccc(NC(=O)c2nc[nH]c2C(=O)Nc2nc3ccccc3[nH]2)c(C)c1
*A* 1.25

*Q* Tell me growth inhibition reported for Cc1nn(C)cc1C(C)Nc1nncc(-c2ccc(C(F)(F)F)cc2)n1 (stereo not drawn)
*A* 4.75

*Q* Please give measured growth inhibition of the following entry: O=C(Nc1ccc(C(F)(F)F)c(C(F)(F)F)c1)c1cc(Cl)ccc1O
*A* 62

*Q* For the molecule Clc1cccc(CO[C@H]2CCc3ccccc3[C@@H]2n2ccnn2)c1 , give its reported growth inhibition.
*A* 3

*Q* Return value of growth inhibition for input CNC(=O)c1nn(C)c2c1C(C)(C)Cc1cnc(Nc3ccc(N4CCN(C)CC4)cc3)nc1-2 , no commentary.
*A* 1.25

*Q* Give a short answer stating reported growth inhibition for O=C(C1CCN(c2nnnn2-c2ccccc2)CC1)N1CCc2ccccc2C1 .
*A* 3

*Q* Tell me measured growth inhibition for FC(F)(F)c1cnc(Sc2nnc(-c3ccncc3)o2)c(Cl)c1 please.
*A* 0

*Q* Determine its reported growth inhibition: CC(=O)N1CCc2cc3nc(C)cc(C)c3cc21
*A* 0

*Q* Note down growth inhibition recorded for CC(C)=CCC/C(C)=C/CNCCNC1C2CC3CC(C2)CC1C3 (stereo not drawn)
*A* 22.2

*Q* Specify growth inhibition for Cc1nnc(NCc2cccc(Cl)c2)c2ccccc12 and stop.
*A* 8.75

*Q* Identify measured growth inhibition corresponding to FC(F)(F)c1cc(NCCc2ccccc2)nc(-c2ccccn2)n1
*A* 9.75

*Q* Given the molecule CCOc1ccc(-c2nc(CNCCc3ccc(F)cc3)cs2)cc1 , write its reported growth inhibition.
*A* 15.5

*Q* For the molecule Cc1noc(C)c1C(=O)N1CCCC(c2[nH]c3c(C)cccc3c2-c2ccncc2)C1 (stereo not drawn) , give its measured growth inhibition value.
*A* 14

*Q* Please report the measured growth inhibition for Cc1cccc(-c2nc(Nc3ccncn3)c3sccc3n2)n1
*A* 9.75

*Q* Identify the reported growth inhibition for the following entry. Brc1cncc(-c2cc(NCCCn3ccnc3)nc(-c3ccccc3)n2)c1
*A* 3.5

*Q* Indicate its recorded growth inhibition; the molecule in question is CN(C)CCNC(=O)N1CCCN(c2ncnc3cc(-c4ccccc4)sc23)CC1
*A* 13.2

*Q* For the molecule Cc1ccc(S(=O)(=O)N2CCN(C(=O)c3cc(-c4ccccc4)n[nH]3)CC2)cc1 , report growth inhibition.
*A* 2

*Q* State its growth inhibition: CC(C)(C)n1nc(Cc2cccc3ccccc23)c2c(N)ncnc21
*A* 0

*Q* Tell us which growth inhibition value is on record for CC1=NN(c2nc3ccccc3s2)C(=O)C1Cc1cccc2ccccc12 (stereo not drawn)
*A* 14.8

*Q* Return growth inhibition (reported value) for this molecule: COC(=O)C1=C(C)NC(C)=C(C(=O)OC(C)C)C1c1cccc2nonc12 (stereo not drawn)
*A* 11

*Q* Return the recorded growth inhibition value; entry: Nc1nc2cc(-c3cncc(Oc4ccc(F)cc4)c3)ccc2[nH]1
*A* 18.5

*Q* State its growth inhibition for this molecule: COc1ccc(CCN2CCC(NCc3cccc(N(C)C)c3)CC2)cc1
*A* 9.75

*Q* Specify reported growth inhibition for the molecule shown: O=C(NCCN1CCCC1)c1cc(NCCN2CCOCC2)nc2ccc(Cl)cc12
*A* 0
